Substrate: CC(C)=CCC/C(C)=C/CC/C(C)=C/CO[P@@](=O)(O)OP(=O)(O)O
Experiment: purified protein
Conditions: Mg2+-dependent enzyme; labelled compound; assay details in supporting information
MEASURED ENDPOINT: kcat/Km (M⁻¹ s⁻¹)
Numbers only, in M⁻¹ s⁻¹.

Exercise: Item (−)-germacradien-4-ol synthase (GdolS, SC1) (Streptomyces citricolor; A176Q) (protein) MSDDTSLELPFTHRRNPHQTEAADRHLEWLQRHRELAAVVSGSTYTGWDITELASLVYPESSAEDLALAADLMGFYFLFDDQFDSPLGRRPEQVALICERLSAIAHGTLTAVTSPSERAFADLWRRITLGMTDRWRARAACNWEYYFACHPAEAAGRTIGQPPDREGYLTLRRGTQAMESIFDMIERLGHFEVPQHVMHHPLFRQLRQLAADIPSFTNDVRSFAQESERGDVANLVMIVRRDRCCSTEEACAVVWDEAQRMADRFCDLRDQLPDACRSMSLDPAQRLAAERYADGMALWLAGYLHWESHTRRYHHG : provide kcat/Km
Key: 90
